- tested target: PcrV of P. aeruginosa strain PA103 (on TTSS-induced bacteria) (Pseudomonas aeruginosa strain PA103)
- test method notes: cell-based or functional assay
Each entry below lists one item and its recorded % inhibition in P3X63 cytotoxicity assay, extract 1/150 value.
endpoint name: % inhibition in P3X63 cytotoxicity assay, extract 1/150 (%)

# binder, experimental result
records = [
    ("Nanobody 260 (1E11-40GS-2B10) (VHH) EVQLVESGGGLVQPGGSLRLSCAASGSTRSVNPMAWFRQAPGRQREWVATISRSGYATYADSVKGRFTISGDNAKSSVYLQMNSLKPEDTAVYYCVTGTYWGQGTLVTVSSGGGGSGGGGSGGGGSGGGGSGGGGSGGGGSGGGGSGGGGSEVQLVESGGGLVQPGGSLRLSCAASGSIFSINNMGWYRQAPGKQRELVTVVTSNLITTYADSVKGRFTISRDNAKNTVYLQMNSLKPEDTAVYYCNAWARSVGSVPYSQFWGQGTLVTVSS", 57),
    ("5E02-40GS-14E10 (VHH) EVQLVESGGGLVQPGGSLRLSCAASGITLDSIAICWFRQAPGKEREGVSCSRGSDGSTYYADSVKGRFTISRVNAKNTVYLQMNSLKPEDTAVYYCAAAPSIFYSGGYFPSGMDYWGKGTQVTVSSGGGGSGGGGSGGGGSGGGGSGGGGSGGGGSGGGGSGGGGSEVQLVESGGGLVQPGGSLRLSCAASGRIFSINTMGWYRQAPGKQRELVAGVTINAITNYADSVKGRFTISRDNAKNTVWLQMNSLKPEDTAVYYCHAWARSSGSAPYSQNWGQGTQVTVSS", 48),
]
